experimentSummary: Relative chemical stability of polymorph I over 4 weeks under storage (HPLC purity)
Type: physicochemical
conditionContext: solid storage, 40 ℃/75%RH; week 4
outcomeMeasure: HPLC purity at 672 h (%)
Field format: number, assumed %, no unit text.

Value lookup for HPLC purity at 672 h; key = O=C(O)COC[C@H](O)[C@H](O)/C=C/C=C/C#C/C=C/[C@H](O)COc1ccc(F)cc1 [다형체 I]
92.5

----------
experimentSummary: Relative chemical stability of polymorph I over 4 weeks under storage (HPLC purity)
Type: physicochemical
conditionContext: solid storage, 25 ℃/60%RH; week 4
outcomeMeasure: HPLC purity at 672 h (%)
Field format: number, assumed %, no unit text.

Value lookup for HPLC purity at 672 h; key = O=C(O)COC[C@H](O)[C@H](O)/C=C/C=C/C#C/C=C/[C@H](O)COc1ccc(F)cc1
97.7
